# Measured target: UniProt O43614
# Sequence (O43614 whole entry): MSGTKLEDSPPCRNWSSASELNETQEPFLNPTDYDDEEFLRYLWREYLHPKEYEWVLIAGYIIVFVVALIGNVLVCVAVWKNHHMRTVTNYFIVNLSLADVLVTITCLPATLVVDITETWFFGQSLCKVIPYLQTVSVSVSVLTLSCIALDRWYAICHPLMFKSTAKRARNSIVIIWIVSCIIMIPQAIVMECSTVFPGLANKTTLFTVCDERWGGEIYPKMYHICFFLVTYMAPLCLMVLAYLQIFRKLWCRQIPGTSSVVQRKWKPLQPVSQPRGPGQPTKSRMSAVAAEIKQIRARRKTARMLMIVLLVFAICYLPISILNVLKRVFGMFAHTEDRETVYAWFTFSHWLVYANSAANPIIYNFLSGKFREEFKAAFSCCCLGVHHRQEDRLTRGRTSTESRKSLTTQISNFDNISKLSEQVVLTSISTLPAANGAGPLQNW
Measurement name: pKi
The quantity pKi is defined as the negative base-10 logarithm of the molar concentration.

// query # returns recorded pKi (system: UniProt O43614) for Cc1ccc(-n2nccn2)c(C(=O)N2C[C@H](Cc3nc4ccccc4n3C)CC[C@H]2C)c1
// result 8.34

* * *

# Measured target: orexin-1 receptor (OX1R) (Homo sapiens)
# Sequence (O43613 1-425): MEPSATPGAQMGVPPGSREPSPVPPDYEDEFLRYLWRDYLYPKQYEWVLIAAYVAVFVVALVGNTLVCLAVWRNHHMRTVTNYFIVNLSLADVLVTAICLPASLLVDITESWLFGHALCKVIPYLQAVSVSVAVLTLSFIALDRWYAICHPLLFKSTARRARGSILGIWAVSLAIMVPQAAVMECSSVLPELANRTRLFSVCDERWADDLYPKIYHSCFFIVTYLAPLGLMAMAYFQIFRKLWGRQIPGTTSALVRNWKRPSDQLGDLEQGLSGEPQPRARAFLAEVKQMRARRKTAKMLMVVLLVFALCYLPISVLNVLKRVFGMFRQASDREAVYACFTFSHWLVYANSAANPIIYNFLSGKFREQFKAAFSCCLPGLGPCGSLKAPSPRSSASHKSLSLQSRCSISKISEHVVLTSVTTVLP
Measurement name: pKi
The meaning of pKi here: minus log10 of the concentration in molar units.

A selection of reference data follows.
// query Could you share what pKi was measured for Cc1ccc(-n2nccn2)c(C(=O)N2C[C@H](CC(=O)N3CCCc4ccccc43)CC[C@H]2C)c1 , tested on orexin-1 receptor (OX1R) (Homo sapiens)?
// result 7.02

// query State its pKi on orexin-1 receptor (OX1R) (Homo sapiens): Cc1ccc(-n2nccn2)c(C(=O)N2C[C@H](COc3nccc4ccccc34)CC[C@H]2C)c1
// result 8.57

Others:
// query # value lookup — system orexin-1 receptor (OX1R) (Homo sapiens), readout pKi, item Cc1ccc(-n2nccn2)c(C(=O)N2C[C@H](COc3cccc(F)c3)CC[C@H]2C)c1
// result 9.07
